Hello, the source for this data is the supplement of paper PMC10567573, in case you need it.

B1: SPRY1 (parent)
chain: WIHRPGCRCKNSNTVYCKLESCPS

Variants of: B1
ASSAY PROCEDURE: protein stability index of a GFP-peptide fusion (GPS, HEK-293T) (PSI 1-6); higher = more stable;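 further: lentivirally expressed fusions sorted by FACS into six bins by GFP to DsRed ratio, PSI derived from sequencing read proportions per bin multiplied by bin number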
MEASUREMENT CONTEXT: c terminus: a fixed tail appended
Please provide measured protein stability index for the entries that follow.

{"SEQUENCE ENTRY": "WIHRPGCRCKNSNNVYCKLESCPS", "RECORDED RESULT": 2.78}

Lab note: each variant below needs its protein stability index filled in.
1. WIHRPGCRCKNSNTVYCKLESCPR
2. WIHRPGCRCKNSNTVYCKLESCDS

// result
1: 1.61; 2: 3.04

Lab note: each variant below needs its protein stability index filled in.
1. WIHRPGCRCKNSNTVYCKWESCPS
2. WPHRPGCRCKNSNTVYCKLESCPS
3. SIHRPGCRCKNSNTVYCKLESCPS
4. WIHRPGCRCKNSKTVYCKLESCPS
5. WIHRPGCRCKNSNTVYMKLESCPS
6. WIHRPGCRCKNSNTVYCRLESCPS
7. WIHRPGCRCKNSNTVYIKLESCPS
8. WIHRPGQRCKNSNTVYCKLESCPS

// result
[2.16, 3.62, 4.09, 1.17, 2.21, 2.09, 2.46, 1.94]

Lab note: each variant below needs its protein stability index filled in.
1. WIHRPGCRCKNSYTVYCKLESCPS
2. WIHRPGCECKNSNTVYCKLESCPS
3. WIHRPGCRCKNSNTVYCKLESCPF
4. WIHRPGCRCKNSNKVYCKLESCPS
5. WIHRPGCRCKNSNTVYCHLESCPS
6. WIHRPTCRCKNSNTVYCKLESCPS
7. WIHRPGCRCKNINTVYCKLESCPS
8. WIHRDGCRCKNSNTVYCKLESCPS

// result
1. 2.73
2. 3.33
3. 2.09
4. 1.92
5. 2.1
6. 3.09
7. 2.4
8. 3.42

Lab note: each variant below needs its protein stability index filled in.
1. WIHRPGCRCKNSNTVYCKLESCES
2. WIHRPGCRCKNSNTVYCMLESCPS

// result
[2.03, 2.46]
